# TESTED_TARGET: CaM (Bos taurus)
# Construct: made in house; host or cells: E. coli BL21 (DE3)
# PROCEDURE_SUMMARY: Pull-down assay with immobilized protein and LSM libraries
# Assay type: binding, bovine
# MEASUREMENT_PARAMETERS: H14 library; 1:2 stoichiometry assumed; read-out: Surface mapping KD (apparent)
pKd: −log10 of the molar value.
Classification field: enter TRUE for pKd values not below 4, FALSE for values below it.

Look over these answered cases.
# COMPOUND_STRING, CLASS_NAME
measured = [
    ("CC(C)[C@@H](CC(=O)N[C@H]1CCCC[C@@H]1C(N)=O)NC(=O)[C@H]1CCCC[C@@H]1NC(=O)[C@H]1CCCC[C@@H]1NC(=O)C[C@@H](NC(=O)[C@H]1CCCC[C@@H]1N)C(C)C", "TRUE"),
    ("NC(=O)CC[C@@H](CC(=O)N[C@H]1CCCC[C@@H]1C(N)=O)NC(=O)[C@H]1CCCC[C@@H]1NC(=O)[C@H]1CCCC[C@@H]1NC(=O)C[C@H](Cc1ccccc1)NC(=O)[C@H]1CCCC[C@@H]1N", "TRUE"),
    ("CC(C)C[C@@H](CC(=O)N[C@H]1CCCC[C@@H]1C(=O)N[C@H]1CCCC[C@@H]1C(=O)N[C@@H](CCCCN)CC(=O)N[C@H]1CCCC[C@@H]1C(N)=O)NC(=O)[C@H]1CCCC[C@@H]1N", "TRUE"),
    ("C[C@@H](O)[C@@H](CC(=O)N[C@H]1CCCC[C@@H]1C(N)=O)NC(=O)[C@H]1CCCC[C@@H]1NC(=O)[C@H]1CCCC[C@@H]1NC(=O)C[C@H](CCC(N)=O)NC(=O)[C@H]1CCCC[C@@H]1N", "FALSE"),
    ("NCCCC[C@@H](CC(=O)N[C@H]1CCCC[C@@H]1C(=O)N[C@H]1CCCC[C@@H]1C(=O)N[C@H](CC(=O)N[C@H]1CCCC[C@@H]1C(N)=O)Cc1ccccc1)NC(=O)[C@H]1CCCC[C@@H]1N", "TRUE"),
    ("N=C(N)NCCC[C@@H](CC(=O)N[C@H]1CCCC[C@@H]1C(N)=O)NC(=O)[C@H]1CCCC[C@@H]1NC(=O)[C@H]1CCCC[C@@H]1NC(=O)C[C@H](CCCCN)NC(=O)[C@H]1CCCC[C@@H]1N", "TRUE"),
    ("NC(=O)[C@H]1CCCC[C@@H]1NC(=O)C[C@H](Cc1c[nH]c2ccccc12)NC(=O)[C@H]1CCCC[C@@H]1NC(=O)[C@H]1CCCC[C@@H]1NC(=O)C[C@H](CO)NC(=O)[C@H]1CCCC[C@@H]1N", "TRUE"),
    ("CC(C)[C@@H](CC(=O)N[C@H]1CCCC[C@@H]1C(=O)N[C@H]1CCCC[C@@H]1C(=O)N[C@@H](CO)CC(=O)N[C@H]1CCCC[C@@H]1C(N)=O)NC(=O)[C@H]1CCCC[C@@H]1N", "FALSE"),
]

Could you please find out whether C[C@@H](O)[C@@H](CC(=O)N[C@H]1CCCC[C@@H]1C(=O)N[C@H]1CCCC[C@@H]1C(=O)N[C@@H](CCC(=O)O)CC(=O)N[C@H]1CCCC[C@@H]1C(N)=O)NC(=O)[C@H]1CCCC[C@@H]1N has pKd that meets 4 or exceeds it?
FALSE

Data origin: paper PMC8162404
